- Tested Target: Sushi domains (SD1/2) protein of the GABAB1a (GB1a) subunit, recombinant
- Sequence (Q9Z0U4 29-158): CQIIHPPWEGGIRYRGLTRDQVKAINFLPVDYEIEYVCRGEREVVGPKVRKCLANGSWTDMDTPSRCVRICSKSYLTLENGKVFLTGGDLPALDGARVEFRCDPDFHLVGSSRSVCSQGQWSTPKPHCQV
- Method: FP competition
pKi: −log10 of the molar value. Non-standard residues stand in square brackets, D forms with d. NMeE = CN[C@@H](CCC(=O)O)C(=O)O; NMeD = CN[C@@H](CC(=O)O)C(=O)O; Sar = CNCC(=O)O
# if value of pKi reaches 6, tag class 1; if it stays below, tag class 0

* Ac-ETEFIAWGPTGDE[NMeD]-NH2 (SMILES CC[C@H](C)[C@H](NC(=O)[C@H](Cc1ccccc1)NC(=O)[C@H](CCC(=O)O)NC(=O)[C@@H](NC(=O)[C@H](CCC(=O)O)NC(C)=O)[C@@H](C)O)C(=O)N[C@@H](C)C(=O)N[C@@H](Cc1c[nH]c2ccccc12)C(=O)NCC(=O)N1CCC[C@H]1C(=O)N[C@H](C(=O)NCC(=O)N[C@@H](CC(=O)O)C(=O)N[C@@H](CCC(=O)O)C(=O)N(C)[C@@H](CC(=O)O)C(N)=O)[C@@H](C)O) […(N-Me-D)] | class 1
* Ac-EDDSYVWWGGADTD-NH2 […] | class 1
* Ac-RRRRRRRREDDDWIDWYDSDDD-NH2 [R8-16 (Ac-…-NH2)] | class 1
* Ac-PWAIVW[Sar]PTVSRED-NH2 (SMILES CC[C@H](C)[C@H](NC(=O)[C@H](C)NC(=O)[C@H](Cc1c[nH]c2ccccc12)NC(=O)[C@@H]1CCCN1C(C)=O)C(=O)N[C@H](C(=O)N[C@@H](Cc1c[nH]c2ccccc12)C(=O)N(C)CC(=O)N1CCC[C@H]1C(=O)N[C@H](C(=O)N[C@H](C(=O)N[C@@H](CO)C(=O)N[C@@H](CCCNC(=N)N)C(=O)N[C@@H](CCC(=O)O)C(=O)N[C@@H](CC(=O)O)C(N)=O)C(C)C)[C@@H](C)O)C(C)C) [PWAIVW(N-Me-G)PTVSRED] | class 0
* Ac-PWAIVWGPTVSR[NMeE]D-NH2 (SMILES CC[C@H](C)[C@H](NC(=O)[C@H](C)NC(=O)[C@H](Cc1c[nH]c2ccccc12)NC(=O)[C@@H]1CCCN1C(C)=O)C(=O)N[C@H](C(=O)N[C@@H](Cc1c[nH]c2ccccc12)C(=O)NCC(=O)N1CCC[C@H]1C(=O)N[C@H](C(=O)N[C@H](C(=O)N[C@@H](CO)C(=O)N[C@@H](CCCNC(=N)N)C(=O)N(C)[C@@H](CCC(=O)O)C(=O)N[C@@H](CC(=O)O)C(N)=O)C(C)C)[C@@H](C)O)C(C)C) […(N-Me-E)D] | class 1
